- Test system: SF-268
- Protocol details: NCI tumour cell line growth inhibition, 48 h
Active and inactive are the calls of the source. Cut-off read from the data, not from the text of the source: active = GI50 up to about 1.1 µM and inactive = higher.
Task for the reader: assign each of the following compounds its reported GI50.

Use these answered entries as a reference point.
CCC1(O)C(=O)OCc2c1cc1n(c2=O)Cc2cc3cc(OC)c(OC)cc3nc2-1 (configuration not stated); 11.4 µM (inactive)
O=C1/C(=C/c2ccccc2S)N=C(c2ccccc2)N1c1nc2ccc(Sc3ccccc3)cc2[nH]1; 38.3 µM (inactive)
COc1ccc2nccc(SCC(=O)O)c2c1; > 100 µM (inactive)
COC(=O)c1sc(C(=O)OC)c2c1C[S+]([O-])C2; > 100 µM (inactive)
CC(=O)N(O)Cc1ccccc1; > 100 µM (inactive)
O=C(/N=C(/Nc1ccccc1)SCS/C(=N\C(=O)c1ccco1)Nc1ccccc1)c1ccco1; 22.5 µM (inactive)

Now turn to the next compound.
Exam item: Note GI50 for the compound shown: `O=[N+]([O-])c1ccc2nc3ccscc-3c2c1`
Marked response: 14.7 µM (inactive)

----------
Task for the reader: assign each of the following compounds its reported GI50.
- System: SNB-19
- Protocol details: NCI tumour cell line growth inhibition, 48 h
The source made the active and inactive calls. No stated cut-off is given here; in the data, active = GI50 up to about 1.1 µM and inactive = higher.

Use these answered entries as a reference point.
C/C(=C1/N=C(c2ccccc2)OC1=O)c1ccc(C)cc1; > 100 µM (inactive)
Nc1nc(Cl)c(N)c(NCC2(CO)CC(CCCc3ccccc3)C2)n1 (stereo not given); > 55.5 µM (inactive)
NS(=O)(=O)c1ccc(NC(=O)c2cccc3cc4ccccc4nc23)cc1; 28.3 µM (inactive)

Give me GI50 for each of these compounds, listed below.
1. O=[N+]([O-])c1ccc2nc3ccscc-3c2c1
2. [O-][s+]1c2c(Cc3ccccc3)c(Cc3ccccc3)c1CCc1cccc(c1)CC2
3. COCOCC/C=C/C=O
4. CC(C)(O)/C=C\P(C)(=O)c1ccccc1 (stereo not given)
5. CSc1nncc(-c2cc3c(c(SC)n2)CCCC3)n1

Marked response:
1. 6.98 µM (inactive)
2. 14.6 µM (inactive)
3. > 100 µM (inactive)
4. > 100 µM (inactive)
5. > 100 µM (inactive)

Give me GI50 for each of these compounds, listed below.
1. COC(=O)C(Cc1nc2ccccc2nc1O)C(=O)C(=O)Nc1ccc([N+](=O)[O-])cc1[N+](=O)[O-] (stereo not given)
2. CC1(C23CC4CC(CC(C4)C2)C3)n2c(=O)n(-c3ccccc3)c(=O)n2C1(C)C12CC3CC(CC(C3)C1)C2 (stereo not given)
3. CN1N=C(c2ccncc2)OC1c1ccccc1F (stereo not given)
4. O=C(/C=C/c1ccsc1)c1cccs1
5. O=S(=O)(c1ccccc1)C(CN1CCCCC1)S(=O)(=O)c1ccccc1
6. CCNc1cc2oc(=O)cc(C(F)(F)F)c2cc1C
7. COc1cc2c(cc1-c1coc3cc(OCC=C(C)C)ccc3c1=O)OCO2
8. C=CCn1c2ccccc2c2c(C)c3cnccc3c(C)c21

Marked response:
1. 29.7 µM (inactive)
2. > 100 µM (inactive)
3. > 100 µM (inactive)
4. 42.6 µM (inactive)
5. > 100 µM (inactive)
6. > 100 µM (inactive)
7. 27.4 µM (inactive)
8. 12.9 µM (inactive)

----------
Lab note: GI50 readings collected with HCT-15 for the following compounds.
One number for each entry, in µM.

Use these answered entries as a reference point.
CC1=CC2C(C(C)C)CC1C1C(=O)OC(=O)C21 (stereo not given); 58.2
Nc1nccc(-c2c[nH]c3cc(Br)ccc23)n1; 25.1
Cc1ccc(S(=O)(=O)N/N=C\c2c3ccccc3[n+]([O-])c3ccccc23)cc1; 0.989

Now turn to the next compound.
Exam item: Note GI50 for the compound shown: `CC(C)(C)c1cc(C(P(=O)(c2ccccc2)c2ccccc2)P(=O)(c2ccccc2)c2ccccc2)cc(C(C)(C)C)c1O`
Marked response: 2.96

Origin of the recorded values: ChEMBL document CHEMBL1201862
